Molecular target: WDR5 (Homo sapiens, UniProt P61964)
Test: Thermal shift by differential scanning fluorimetry
Assay type: binding
Conditions: DSF; 10 μM, or ten-point dilution for 7k
attribute measured: WDR5 stabilization by thermal shift (in words)

smiles notation: N#CC1(c2cc(NS(=O)(=O)c3cc(Br)cc(Cl)c3O)c(O)c(C(=O)O)c2)CCCCC1
meas value: largest ΔTm
--
smiles notation: N#CC1(c2cc(NS(=O)(=O)c3cc(Br)cc(Cl)c3O)c(O)c(C(=O)O)c2)CCC1
meas value: largest ΔTm
--
smiles notation: O=C(O)c1cc(S(F)(F)(F)(F)F)cc(NS(=O)(=O)c2cc(Br)cc(Cl)c2O)c1O
meas value: largest ΔTm
